Field: MIC. Provide a value for each of the compounds that follow.
- System: Staphylococcus aureus ATCC 6538P
- method.notes: MIC, Staphylococcus aureus ATCC 6538P (SA(1))
- Assay type: cell-based
- condition.context: Staphylococcus aureus, ATCC6538P, Staphylococcus aureus ATCC 6538P; read-out: MIC SA (1)
One number for each entry, in µg/mL.

compound	tgt	MIC, µg/mL
C=CC[N+](C)(C)[C@H]1C[C@@H](C)O[C@@H](O[C@@H]2[C@@H](C)[C@H](O[C@H]3C[C@@](C)(OC)[C@@H](O)[C@H](C)O3)[C@@H](C)C(=O)O[C@H](CC)[C@@](C)(O)[C@H](O)[C@@H](C)C3O[C@]2(C)CC3C)[C@@H]1O (stereo partly drawn)	Staphylococcus aureus ATCC 6538P	100

Below is a list of compounds. For each, state its recorded MIC.
1. CC[C@H]1OC(=O)[C@H](C)[C@@H](O[C@H]2C[C@@](C)(OC)[C@@H](O)[C@H](C)O2)[C@H](C)[C@@H](O[C@@H]2O[C@H](C)C[C@H]([N+](C)(C)CC)[C@H]2O)[C@@]2(C)CC(C)=C(O2)[C@H](C)[C@@H](O)C1C (stereo partly drawn)
2. CC[C@H]1OC(=O)[C@H](C)[C@@H](O[C@H]2C[C@@](C)(OC)[C@@H](O)[C@H](C)O2)[C@H](C)[C@@H](O[C@@H]2O[C@H](C)C[C@H](N(C)C)[C@H]2O)[C@@]2(C)CC(C)C(O2)[C@H](C)[C@@H](O)[C@]1(C)O (stereo partly drawn) [*1, reference compound]
3. CCC1OC(=O)C(C)C(OC2CC(C)(OC)C(O)C(C)O2)C(C)C(OC2OC(C)CC([N+](C)(C)Cc3ccccc3)C2O)C2(C)CC(C)=C(O2)C(C)C(O)C1(C)O (stereo not drawn)

100
12.5
100

* * *

- System: Klebsiella pneumoniae ATCC 10031
- method.notes: MIC, Klebsiella pneumoniae ATCC 10031 (KP)
- Assay type: cell-based
- condition.context: ATCC10031; Klebsiella pneumoniae ATCC 10031; read-out: MIC KP
measured.metric: MIC

Solved entries:
compound	MIC
CCC1OC(=O)C(C)C(OC2CC(C)(OC)C(O)C(C)O2)C(C)C(OC2OC(C)CC(N(C)CCO)C2O)C2(C)CC(C)=C(O2)C(C)C(O)C1(C)O (stereo not drawn) [Compound 37]	> 100 µg/mL
CCC1OC(=O)C(C)C(OC2CC(C)(OC)C(O)C(C)O2)C(C)C(OC2OC(C)CC([N+](C)(C)CCF)C2O)C2(C)CC(C)=C(O2)C(C)C(O)C1(C)O (stereo not drawn) [Compound 32]	> 100 µg/mL
CCC1OC(=O)C(C)C(OC2CC(C)(OC)C(O)C(C)O2)C(C)C(OC2OC(C)CC([N+](C)(C)Cc3ccccc3)C2O)C2(C)CC(C)=C(O2)C(C)C(O)C1(C)O (stereo not drawn) [Compound 17]	> 100 µg/mL
CC[C@H]1OC(=O)[C@H](C)[C@@H](O[C@H]2C[C@@](C)(OC)[C@@H](O)[C@H](C)O2)[C@H](C)[C@@H](O[C@@H]2O[C@H](C)C[C@H]([N+](C)(C)CC)[C@H]2O)[C@](C)(O)C[C@@H](C)C(=O)[C@H](C)[C@@H](O)[C@]1(C)O [Compound 76]	> 100 µg/mL
CCC1OC(=O)C(C)C(OC2CC(C)(OC)C(O)C(C)O2)C(C)C(OC2OC(C)CC([N+](C)(C)C)C2O)C2(C)CC(C)=C(O2)C(C)C(OC(C)=O)C1(C)OC(C)=O (stereo not drawn) [Compound 2]	> 100 µg/mL
C#CC[N+](C)(C)C1CC(C)OC(OC2C(C)C(OC3CC(C)(OC)C(O)C(C)O3)C(C)C(=O)OC(CC)C3(C)OC(=O)OC3C(C)C3=C(C)CC2(C)O3)C1O (stereo not drawn) [Compound 57]	> 100 µg/mL
CCC1OC(=O)C(C)C(OC2CC(C)(OC)C(O)C(C)O2)C(C)C(OC2OC(C)CC(N(CC)CC)C2O)C2(C)CC(C)=C(O2)C(C)C(O)C1(C)O (stereo not drawn) [Compound 20]	> 100 µg/mL
C=CCN(CC=C)C1CC(C)OC(OC2C(C)C(OC3CC(C)(OC)C(O)C(C)O3)C(C)C(=O)OC(CC)C(C)(O)C(O)C(C)C3=C(C)CC2(C)O3)C1O (stereo not drawn) [Compound 38]	> 100 µg/mL
C#CC[N+](C)(C)[C@H]1C[C@@H](C)O[C@@H](O[C@@H]2[C@@H](C)[C@H](O[C@H]3C[C@@](C)(OC)[C@@H](OC=O)[C@H](C)O3)[C@@H](C)C(=O)O[C@H](CC)[C@@](C)(O)[C@H](O)[C@@H](C)C3=C(C)C[C@@]2(C)O3)[C@@H]1O [Compound 60]	> 100 µg/mL
C#CC[N+](C)(CC=C)C1CC(C)OC(OC2C(C)C(OC3CC(C)(OC)C(O)C(C)O3)C(C)C(=O)OC(CC)C(C)(O)C(O)C(C)C3=C(C)CC2(C)O3)C1O (stereo not drawn) [Compound 44]	> 100 µg/mL

Provide each entry's MIC from the list below.
1. C#CC[N+](C)(C)[C@H]1C[C@@H](C)O[C@@H](O[C@@H]2[C@@H](C)[C@H](O[C@H]3C[C@@](C)(OC)[C@@H](O)[C@H](C)O3)[C@@H](C)C(=O)O[C@H](CC)[C@@](C)(O)[C@H](O)[C@@H](C)C3O[C@]2(C)CC3C)[C@@H]1O (stereo partly drawn) [Compound 67]
2. CC[C@H]1OC(=O)[C@H](C)[C@@H](O[C@H]2C[C@@](C)(OC)[C@@H](O)[C@H](C)O2)[C@H](C)[C@@H](O[C@@H]2O[C@H](C)C[C@H]([N+](C)(C)CC)[C@H]2O)[C@@]2(C)CC(C)=C(O2)[C@H](C)[C@@H](O)[C@]1(C)O [Compound 61]
3. C#CC[N+](C)(C)C1CC(C)OC(OC2C(C)C(OC3CC(C)(OC)C(O)C(C)O3)C(C)C(=O)OC(CC)C3(C)OB(c4ccccc4)OC3C(C)C3=C(C)CC2(C)O3)C1O (stereo not drawn) [Compound 56]
4. CCC[N+](C)(C)[C@H]1C[C@@H](C)O[C@@H](O[C@@H]2[C@@H](C)[C@H](O[C@H]3C[C@@](C)(OC)[C@@H](O)[C@H](C)O3)[C@@H](C)C(=O)O[C@H](CC)[C@@]3(C)OC4(O[C@]2(C)CC4C)[C@H](C)[C@H]3O)[C@@H]1O (stereo partly drawn) [Compound 72]
5. CCC1OC(=O)C(C)C(OC2CC(C)(OC)C(O)C(C)O2)C(C)C(OC2OC(C)CC(N3CCCC3)C2O)C2(C)CC(C)=C(O2)C(C)C(O)C1(C)O (stereo not drawn) [Compound 13]
6. CC[C@H]1OC(=O)[C@H](C)[C@@H](O[C@H]2C[C@@](C)(OC)[C@@H](O)[C@H](C)O2)[C@H](C)[C@@H](O[C@@H]2O[C@H](C)C[C@H]([N+](C)(C)CC)[C@H]2O)[C@@]2(C)CC(C)C3(O[C@@]1(C)[C@H](O)[C@H]3C)O2 (stereo partly drawn) [Compound 71]

["> 100 µg/mL", "> 100 µg/mL", "> 100 µg/mL", "> 100 µg/mL", "> 100 µg/mL", "> 100 µg/mL"]

I have 2 compounds here; please give me MIC for each one.
1. CCC1OC(=O)C(C)C(OC2CC(C)(OC)C(O)C(C)O2)C(C)C(OC2OC(C)CC(N)C2O)C2(C)CC(C)=C(O2)C(C)C(O)C1(C)O (stereo not drawn) [Compound 9]
2. CCC1OC(=O)C(C)C(OC2CC(C)(OC)C(O)C(C)O2)C(C)C(OC2OC(C)CC([N+](C)(C)CC)C2O)C2(C)CC(C)=C(O2)C(C)C(OS(C)(=O)=O)C1(C)O (stereo not drawn) [Compound 18]

> 100 µg/mL
> 100 µg/mL

These entries and their values trace back to patent US4948782A.
